biological target: RBP4-TTR interaction (Homo sapiens, UniProt P02753); experiment: High throughput in vitro assay detecting inhibition of RBP-TTR interaction; conditions: Table 1, read-out: Apparent 50 IC
OBSERVABLE: IC50 (nM)

Known results for molecules:
# MOLECULE, STUDY_SYSTEM, UNIT_STRING, IC50
records = [
    ("CC(C)(C)c1cc(Cl)ccc1OCCCCCCC(=O)O", "RBP4-TTR interaction (Homo sapiens, UniProt P02753)", "nM", 500),
    ("CC(C)(C)c1cc(Cl)ccc1OCCCCC(=O)Nc1ccc(O)cc1", "RBP4-TTR interaction (Homo sapiens, UniProt P02753)", "nM", 1000),
    ("CC(C)(C)c1cc(Cl)ccc1OCCCCC(=O)Nc1ccc(CC(=O)O)cc1", "RBP4-TTR interaction (Homo sapiens, UniProt P02753)", "nM", 1000),
    ("CC(C)(C)c1cc(Cl)ccc1OCCCCCCC(=O)Nc1ccc(O)cc1", "RBP4-TTR interaction (Homo sapiens, UniProt P02753)", "nM", 1000),
]

[a] CC(C)(C)c1cc(Cl)ccc1OCC1CCC(C(=O)O)C1 (centres unmarked)
[b] CC(C)(C)c1cc(Cl)ccc1OCCCC(=O)O
[c] CC(C)(C)c1cc(Cl)ccc1OCCCCC(=O)O
[d] CC(C)(C)c1cc(Cl)ccc1OCC1CCCC(C(=O)O)C1 (centres unmarked)
INPUT: Could you please order the items by IC50, going from the lowest number to the highest? Your reply should list the labels following the order given in the request.
OUTPUT: c, d, a, b
(c: 100 nM, d: 160 nM, a: 400 nM, b: 1000 nM)

Reference source: patent US7973079B2
